# experimentNotes: activity coefficient (dimensionless); of the first substance listed, at infinite dilution; xn = mol fraction of the nth substance listed
# appliedConditions: 358.15 K; 101.33 kPa; Liquid; Chromatography; x1 = 0
recordedMetric: activity coefficient

[[record]]
compound = "C1CCOC1 [tetrahydrofuran] + CCCCCCCCCCCCCC[P+](CCCCCC)(CCCCCC)CCCCCC.N#CC(=C=[N-])C#N"
recordedmetric = "activity coefficient"
measuredresult = 0.436

[[record]]
compound = "C#CCCCCC [1-heptyne] + CCCCCCCCCCCCCC[P+](CCCCCC)(CCCCCC)CCCCCC.N#CC(=C=[N-])C#N"
recordedmetric = "activity coefficient"
measuredresult = 1.07

[[record]]
compound = "Cc1ccccc1 [toluene] + CCCCCCCCCCCCCC[P+](CCCCCC)(CCCCCC)CCCCCC.N#CC(=C=[N-])C#N"
recordedmetric = "activity coefficient"
measuredresult = 0.635

[[record]]
compound = "c1ccncc1 [pyridine] + CCCCCCCCCCCCCC[P+](CCCCCC)(CCCCCC)CCCCCC.N#CC(=C=[N-])C#N"
recordedmetric = "activity coefficient"
measuredresult = 0.425

